System: MCF7 breast
assay-explanation: NCI tumour cell line growth inhibition, 48 h
quantity-name: TGI

TGI of `CN(C)c1nc(=NCc2cccs2)ss1` on MCF7 breast?
> 10 µM

Entry COc1ccc(C2CC(c3ccc4ccccc4c3O)=NN2C(C)=O)cc1OC (stereo unspecified) , system MCF7 breast: what TGI was measured?
> 100 µM

Test system MCF7 breast; read-out TGI; what value for `c1ccc(-c2nnc(Nc3ccc4c(c3)OCCO4)o2)c(NCc2ccncc2)c1` ?
> 38.8 µM

MCF7 breast / TGI / ClC1=NC(Cl)C(Cl)=N/C1=N\c1ncn[nH]1 (stereo unspecified) : value?
4.15 µM

Which TGI is reported with MCF7 breast for this entry: `Cn1c(Sc2ccc(-c3cccnc3)n2C)ccc1-c1cccnc1` ?
45.3 µM

# returns recorded TGI (system: MCF7 breast) for CCOC(CI)O[C@@H]1C=C[C@H](OC(C)=O)C1 (stereo partly specified)
> 100 µM

* * *

Test system: SF-539 CNS
assay-explanation: NCI tumour cell line growth inhibition, 48 h; in the data active = GI50 below about 0.43 µM; inactive = the rest
Returns: one label drawn from Yes (active), No (inactive)

Tell me the recorded outcome of this test for `COC(=O)c1ccc2c(c1)C(=O)c1c-2n(CCCN)c(=O)c2cc([N+](=O)[O-])ccc12` .
Yes

I would be grateful if you could indicate the recorded call for `O=Cc1ccc(Oc2c3ccccc3nc3occc23)cc1` .
No

Please indicate how the test categorized `CCOC(=O)Cn1c(C)c(/C=N/NC(=O)c2cc3c(ccc4ccccc43)o2)c2ccccc21` .
Yes

Recorded test call requested for `N#Cc1cccc(/C=C(/C(=O)c2ccccc2)c2ccccc2)c1`
No

Any idea what this test logged for `C/C1=C\C/C=C(\C)[C@H]2CC(CC/C(C)=C/CC1)[C@@](C)(CO)O2` ?
No

What did the test return for `CC1(C)CC(OCCCC[P+](c2ccccc2)(c2ccccc2)c2ccccc2)CC(C)(C)N1O` ?
Yes

What classification did `COc1cc2nc(N3CCCC3)nc(Nc3ccccc3)c2cc1OC` end up with in this test?
No

Query: recorded result category for `Nc1c(C(=O)c2cccc(C#CCN3CCOCC3)c2)cnn1-c1ccc(F)cc1` in this test
No

* * *

Test system: NCI-H226 lung
assay-explanation: NCI tumour cell line growth inhibition, 48 h
For each entry below, report its TGI value.

Which TGI is listed for `N#Cc1c(C#N)c(-c2ccco2)n(-c2ccccc2)c1N` ?
> 100 µM

Which TGI value is on record for `C/C1=C\C/C=C(\C)[C@H]2CC(CC/C(C)=C/CC1)[C@@](C)(CO)O2` ?
> 100 µM

Look at this molecule and give its reported TGI. O=C(Nc1ccccc1)NS(=O)(=O)c1ccc(N2N=C3c4ccccc4CC3C2c2ccccn2)cc1 (stereo not given)
75.3 µM

State the recorded TGI for this entry: `COC(=O)c1c2c(c(-c3ccccc3)c3c1-c1nc(Cl)ccc1CC3)CCc1ccc(Cl)nc1-2`
> 100 µM

Data request, read-out TGI, for `Cc1cc(N(CCCCl)CCCCl)ccc1C=Nc1cccc(Cl)c1`
0.562 µM

Can you share its TGI? I mean this molecule: CC(=O)OCC1OC(n2c(=O)n(-c3ccccc3)c(=O)c3cc(Br)cc(Br)c32)C(OC(C)=O)C(OC(C)=O)C1OC(C)=O (stereo not given)
> 100 µM

So what's the measured TGI for this one? `CO/N=C(/COc1c(-c2ccccc2)oc2ccccc2c1=O)c1ccc(OC)cc1`
> 100 µM

Endpoint output: TGI of `COc1cc(C(=O)C/C(CCC(=O)Nc2ccc(Cl)cc2Cl)=N/NC(=O)C(N)=O)ccc1O` . Value?
> 100 µM

// lookup TGI for `NC1=CN(Cc2ccccc2)C2=N/C(=C\c3ccccc3)C(=O)N12`
> 100 µM

If you can, please state the reported TGI value of `COc1cc(O)c2c(c1)C(=O)c1cc(C)cc(O)c1C2=O` .
> 100 µM

* * *

Test system: UO-31 renal
assay-explanation: NCI tumour cell line growth inhibition, 48 h
Hi there, I'd appreciate the recorded TGI for every entry that follows.
Report the value in µM with no unit label.

Form field: reported TGI of `Cc1c2cccc-2ccc2c1[nH]c1ccc(Br)cc12`
18.6

// query TGI value for entry `c1ccc(-c2nnc(Nc3ccc4c(c3)OCCO4)o2)c(NCc2ccncc2)c1`
26.3

Record request: TGI value, item `COc1cc2nc(N3CCCC3)nc(Nc3ccccc3)c2cc1OC`
2.84

Returns the measured TGI for the input compound. Input: `COc1cccc(-n2ncc3c(N/N=C/c4ccc(S(C)(=O)=O)cc4)ncnc32)c1`
14.3

Entry under review: CC1OC(OC2CCCc3c(O)c4c(c(O)c32)C(=O)c2ccccc2C4=O)CC(N)C1O (stereo unspecified) . Reported TGI?
3.11

* * *

System: DU-145 prostate
assay-explanation: NCI tumour cell line growth inhibition, 48 h; in the data active means GI50 below about 0.43 µM; inactive means the rest
Field 'call' accepts active, inactive

Hello, I am checking results. What call was entered for C[C@]12CCC3c4ccc(O)cc4CCC3C1Cc1ccc(O)cc12 (some centres undefined) ?
inactive

Hi team, can someone confirm the assay call for `CCN(CC)CCCOc1cc(O)c2c(=O)cc(-c3ccccc3)oc2c1` ?
inactive

How was `O=C(NNc1ccccc1)OCc1ccccc1` classified in this test?
inactive

How was `COc1ccc2[nH]c(=O)c(/C=C/C(=O)/C=C/c3ccc(O)c(OC)c3)cc2c1` classified in this test?
inactive

Which outcome was entered for the compound `N#CSCc1c(Cl)cccc1Cl` in this test?
inactive

GET /call?item= `COc1ccc(-c2cc(-c3cn[nH]c3-c3ccccn3)ccn2)cc1` returns the recorded outcome of this test.
inactive

Could you check what this test reported for `CO[C@H]1C[C@@H]2CC[C@@H](C)[C@@](O)(O2)C(=O)C(=O)N2CCCC[C@H]2C(=O)O[C@H]([C@H](C)C[C@@H]2CC[C@@H](OP(C)(C)=O)[C@H](OC)C2)CC(=O)[C@H](C)/C=C(\C)[C@@H](O)[C@@H](OC)C(=O)[C@H](C)C[C@H](C)/C=C/C=C/C=C/1C` ?
inactive

Each compound tested received a call. Report the one for `O=C1c2cc3c(cc2[C@@H]2[C@H]1c1ccc([N+](=O)[O-])cc1C(=O)N2CCCCl)OCO3` .
active

Test call, this compound: `COc1cc2ccnc3c2c(c1OC)-c1ccc(=O)ccc1-3`
inactive

* * *

Tested on: M14 melanoma
assay-explanation: NCI tumour cell line growth inhibition, 48 h
quantity-name: GI50

Using the record for `Nc1c(C(=O)c2cccc(C#CCN3CCOCC3)c2)cnn1-c1ccc(F)cc1` , report its GI50.
> 25 µM

Given the compound `CNNC(=N\S(=O)(=O)c1cc(C(=O)Nc2ccc(Cl)cc2)c(Cl)cc1SCc1ccccc1)/N=C/c1ccc([N+](=O)[O-])s1` , what is its reported GI50?
10.1 µM

I have this compound here, `C/C1=C\C/C=C(\C)[C@H]2CC(CC/C(C)=C/CC1)[C@@](C)(CO)O2` , and I need its recorded GI50.
71.7 µM

# lookup: GI50 of `Fc1ccc(-c2nnc3sc(COc4ccccc4Cl)nn23)cc1Cl`
34.9 µM

May I ask what GI50 has been recorded for CCC[CH2][Ge]([CH2]CCC)([CH2]CCC)[O]C(=O)C(OC)c1ccccc1 (stereo not given) ?
16.7 µM

* * *

Tested on: M14 melanoma
assay-explanation: NCI tumour cell line growth inhibition, 48 h
Where a SMILES comes first, the peptide text is derived from it.
quantity-name: TGI

GET /values?readout=TGI&item= CC(=O)NC(CS)C(=O)NC(CO)C(=O)NC(CO)C(=O)NC(Cc1c[nH]c2ccccc12)C(=O)N1CCCC1C(=O)NC(CO)C(=O)NC(Cc1c[nH]c2ccccc12)C(=O)NC(Cc1c[nH]cn1)C(=O)NC(CO)C(=O)NC(Cc1c[nH]c2ccccc12)C(=O)NCC(=O)NCC(=O)NC(CC(=O)O)C(=O)NC(CCC(N)=O)C(=O)NC(CCCCN)C(=O)NC(Cc1ccccc1)C(=O)NC(CCCNC(=N)N)C(=O)NC(CCCCN)C(N)=O (stereo unspecified) (Ac-CSSWPSWHSWGGDQKFRK-NH2; configuration not given here)
> 25 µM

* * *

Test system: HCT-116 colon
assay-explanation: NCI tumour cell line growth inhibition, 48 h
quantity-name: log10 of TGI (log10 of the value in µM)
The base-10 logarithm of TGI, taken with TGI in µM, is what appears here.

Which value of log10 of TGI has been reported for `O=C1c2cc3c(cc2[C@@H]2[C@H]1c1ccc([N+](=O)[O-])cc1C(=O)N2CCCCl)OCO3` in the records?
1.20

Query: log10 of TGI; subject: `S=C(N/N=C(/c1ccccc1)c1ccccn1)Nc1ccc(Cl)cc1`
0.65

Which value of log10 of TGI has been reported for `O=c1oc2ccc(Cl)cc2c(=O)n1-c1cc(C(F)(F)F)cc(C(F)(F)F)c1` in the records?
0.08

Quick one: log10 of TGI for `Nc1ccc(Nc2c3ccccc3nc3ccccc23)cc1` ?
0.98

Quick one: log10 of TGI of `CN1CCN(Cc2ccc(NC(=O)c3nc4ccc5[nH]ncc5c4c4c3CCC4)cc2C(F)(F)F)CC1` ?
0.21

Form field: reported log10 of TGI of `O=C(Nc1sccc1S(=O)(=O)c1ccc(Cl)cc1)C(F)(F)F`
1.57

Can you share its log10 of TGI? I mean this compound: CC(C)(C)OC(=O)NC(Cc1ccc(OCc2ccccc2)cn1)C(=O)NCc1ccccc1 (stereo not given)
1.92

Query: log10 of TGI; subject: `Cc1ccc(S(=O)(=O)SCc2ccccc2CSS(=O)(=O)c2ccc(C)cc2)cc1`
1.78

Fill in: log10 of TGI of `O=C1c2ccccc2C(=O)c2c1ccc(C(=O)O)c2-c1ccc2ccccc2c1` is ___
1.68

May I ask what log10 of TGI has been recorded for `CC(C)=C[C@@H]1C[C@H](C)c2c(O)cc(C)c3c2C1=C(C)C(=O)C3=O` ?
1.45

Tell me the measured log10 of TGI of `C=CC(=O)N1CCC([C@@H]2CCNc3c(C(N)=O)c(-c4ccc(Oc5ccccc5)cc4)nn32)CC1` , please.
1.59

Consider the compound shown here: `O=C(Nc1nnc(-c2c(Cl)c(Cl)c(Cl)c(Cl)c2-c2nc3cc(C(=O)c4ccccc4)ccc3[nH]2)o1)c1ccccc1` What is its recorded log10 of TGI?
1.94
